- MEASURED_TARGET: human IL-21R expressed on cells (human, UniProt Q9HBE5 20-538)
- Sequence (Q9HBE5 20-538 limits assumed): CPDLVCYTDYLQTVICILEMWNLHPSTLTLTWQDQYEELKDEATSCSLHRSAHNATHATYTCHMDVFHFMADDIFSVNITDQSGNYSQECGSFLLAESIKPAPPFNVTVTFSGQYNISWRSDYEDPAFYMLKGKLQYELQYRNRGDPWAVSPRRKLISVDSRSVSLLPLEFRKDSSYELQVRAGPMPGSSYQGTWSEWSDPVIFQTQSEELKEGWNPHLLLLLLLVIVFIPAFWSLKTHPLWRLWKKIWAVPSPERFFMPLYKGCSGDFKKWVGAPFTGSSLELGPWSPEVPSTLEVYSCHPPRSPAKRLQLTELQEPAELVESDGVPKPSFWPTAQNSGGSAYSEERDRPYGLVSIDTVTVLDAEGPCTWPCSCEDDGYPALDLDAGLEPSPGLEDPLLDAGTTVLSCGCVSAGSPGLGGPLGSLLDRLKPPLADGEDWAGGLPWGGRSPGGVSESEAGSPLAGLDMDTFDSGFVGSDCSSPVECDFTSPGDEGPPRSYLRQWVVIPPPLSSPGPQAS
- TEST_NAME: cell-based or functional assay
Parameter Human IL-21R-TF1 Proliferation IC50: see the listing below.
OBSERVED_PROPERTY: Human IL-21R-TF1 Proliferation IC50

{"columns": ["BINDER", "OBSERVED_PROPERTY", "MEASURED_VALUE"],
 "data": [
  ["AbL (antibody, human IgG1, V domains shown, Full-length human IgG1 / human lambda, transient, conditioned medium; Framework limits derived; also called VH3/VL13) VH: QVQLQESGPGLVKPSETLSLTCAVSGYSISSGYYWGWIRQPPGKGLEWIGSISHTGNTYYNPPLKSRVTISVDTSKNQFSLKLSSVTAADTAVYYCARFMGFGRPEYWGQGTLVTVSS VL: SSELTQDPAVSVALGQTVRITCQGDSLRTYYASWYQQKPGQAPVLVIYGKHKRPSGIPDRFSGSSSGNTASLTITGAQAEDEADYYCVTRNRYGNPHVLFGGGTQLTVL", "Human IL-21R-TF1 Proliferation IC50", "4.25 nM"],
  ["AbS (antibody, human IgG1, V domains shown, Human IgG1 triple-mutant (L234A, L235A, G237A); Framework limits derived; also called VHP/VL6; VHPTM/VL6) VH: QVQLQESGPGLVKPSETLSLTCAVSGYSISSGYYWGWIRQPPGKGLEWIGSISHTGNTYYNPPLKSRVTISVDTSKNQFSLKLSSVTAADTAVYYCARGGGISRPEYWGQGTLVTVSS VL: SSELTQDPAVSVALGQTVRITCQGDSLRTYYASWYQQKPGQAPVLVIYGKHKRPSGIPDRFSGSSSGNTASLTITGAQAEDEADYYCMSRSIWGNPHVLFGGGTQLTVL", "Human IL-21R-TF1 Proliferation IC50", "5 nM"],
  ["AbP (antibody, human IgG1, V domains shown, Human IgG1 triple-mutant (L234A, L235A, G237A); Framework limits derived; also called VHP/VL20; VHPTM/VL20) VH: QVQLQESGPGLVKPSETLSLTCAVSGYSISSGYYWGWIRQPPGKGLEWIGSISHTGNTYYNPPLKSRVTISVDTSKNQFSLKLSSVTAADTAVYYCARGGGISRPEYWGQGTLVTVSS VL: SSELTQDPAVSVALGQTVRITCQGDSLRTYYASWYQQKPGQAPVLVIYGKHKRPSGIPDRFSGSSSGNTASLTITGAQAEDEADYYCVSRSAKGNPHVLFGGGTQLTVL", "Human IL-21R-TF1 Proliferation IC50", "3.48 nM"],
  ["AbQ (antibody, human IgG1, V domains shown, Purified form: human IgG1 double-mutant (L234A, G237A); Framework limits derived; also called VH3/VL2; VH3DM/VL2) VH: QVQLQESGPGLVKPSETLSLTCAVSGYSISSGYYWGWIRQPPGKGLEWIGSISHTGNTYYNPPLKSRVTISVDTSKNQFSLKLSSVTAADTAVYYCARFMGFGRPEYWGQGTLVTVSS VL: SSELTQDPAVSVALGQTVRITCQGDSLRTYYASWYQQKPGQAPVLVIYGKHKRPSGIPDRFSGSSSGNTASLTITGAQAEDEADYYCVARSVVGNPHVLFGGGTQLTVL", "Human IL-21R-TF1 Proliferation IC50", "4.62 nM"],
  ["AbI (antibody, human IgG1, V domains shown, Full-length human IgG1 / human lambda, transient, conditioned medium; Framework limits derived; also called VHP/VL24) VH: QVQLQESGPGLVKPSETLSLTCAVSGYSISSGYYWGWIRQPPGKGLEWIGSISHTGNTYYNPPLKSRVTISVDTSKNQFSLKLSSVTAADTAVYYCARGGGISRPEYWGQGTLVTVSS VL: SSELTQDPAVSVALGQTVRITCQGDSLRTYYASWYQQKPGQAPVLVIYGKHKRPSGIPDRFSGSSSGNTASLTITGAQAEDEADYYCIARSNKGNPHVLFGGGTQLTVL", "Human IL-21R-TF1 Proliferation IC50", "3.8 nM"]
]}
